Biological target: hERG currents (Homo sapiens)
Sequence (Q12809 whole entry): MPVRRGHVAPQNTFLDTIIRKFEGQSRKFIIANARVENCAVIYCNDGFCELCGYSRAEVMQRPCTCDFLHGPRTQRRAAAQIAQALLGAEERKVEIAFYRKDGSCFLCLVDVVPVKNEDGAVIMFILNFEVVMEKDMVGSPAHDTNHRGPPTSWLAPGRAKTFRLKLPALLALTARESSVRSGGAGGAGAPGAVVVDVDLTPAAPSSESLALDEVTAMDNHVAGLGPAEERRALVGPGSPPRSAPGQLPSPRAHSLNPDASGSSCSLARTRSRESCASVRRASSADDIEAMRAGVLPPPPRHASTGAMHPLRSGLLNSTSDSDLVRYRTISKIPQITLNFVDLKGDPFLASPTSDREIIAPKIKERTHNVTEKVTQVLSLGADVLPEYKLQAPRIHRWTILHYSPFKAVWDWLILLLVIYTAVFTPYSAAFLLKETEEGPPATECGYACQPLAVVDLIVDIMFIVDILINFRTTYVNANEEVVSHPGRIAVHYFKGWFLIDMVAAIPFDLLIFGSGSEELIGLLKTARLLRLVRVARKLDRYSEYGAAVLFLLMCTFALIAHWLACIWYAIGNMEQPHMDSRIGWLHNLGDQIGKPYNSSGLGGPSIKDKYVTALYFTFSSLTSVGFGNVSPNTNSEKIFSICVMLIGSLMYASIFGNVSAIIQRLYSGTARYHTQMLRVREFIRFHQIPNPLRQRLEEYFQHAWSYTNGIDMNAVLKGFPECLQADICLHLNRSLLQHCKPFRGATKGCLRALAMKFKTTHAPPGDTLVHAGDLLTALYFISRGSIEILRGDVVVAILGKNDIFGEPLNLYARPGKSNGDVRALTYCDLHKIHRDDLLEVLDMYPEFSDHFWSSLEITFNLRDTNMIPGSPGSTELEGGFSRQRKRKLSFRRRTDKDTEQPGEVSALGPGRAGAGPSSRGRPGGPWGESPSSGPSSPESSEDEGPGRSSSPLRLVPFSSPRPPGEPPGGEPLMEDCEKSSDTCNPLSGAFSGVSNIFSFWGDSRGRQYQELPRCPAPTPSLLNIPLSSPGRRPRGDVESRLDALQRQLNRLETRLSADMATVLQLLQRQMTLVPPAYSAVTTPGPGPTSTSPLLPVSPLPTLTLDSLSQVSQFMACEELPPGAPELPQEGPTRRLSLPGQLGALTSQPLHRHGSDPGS
Assay: cell-based
metric name: IC50

// recorded IC50 for CCC(CC)COC(=O)[C@H](C)N[P@](=O)(OC[C@H]1O[C@@](C#N)(c2ccc3c(N)ncnn23)[C@H](O)[C@@H]1O)Oc1ccccc1 [Remdesivir] : > 100 µM

###

Assay: Cell viability assay
Format: cell-based
Conditions: human
metric name: CC50 at 24 h
Write the figure, then the unit, nothing else.

// recorded CC50 at 24 h for `CCC(CC)COC(=O)[C@H](C)N[P@](=O)(OC[C@H]1O[C@@](C#N)(c2ccc3c(N)ncnn23)[C@H](O)[C@@H]1O)Oc1ccccc1` : 39.4 µM

###

Experiment: Cell viability assay
Type: cell-based
Details: human, hESC-CMs (human embryonic stem cell-derived cardiomyocytes)
Would you mind telling me the reported CC50 at 48 h of each entry?
The reply should contain only the number, in µM.

// recorded CC50 at 48 h for `CCC(CC)COC(=O)[C@H](C)N[P@](=O)(OC[C@H]1O[C@@](C#N)(c2ccc3c(N)ncnn23)[C@H](O)[C@@H]1O)Oc1ccccc1` : 10.2

// recorded CC50 at 48 h for CCN(CC)CCCC(C)Nc1ccnc2cc(Cl)ccc12 (centres unmarked) : 84.9

###

Experiment: Cytotoxicity in mock-infected Vero E6 cells
Assay type: cell-based
Details: African green monkey
Would you mind telling me the reported CC50 at 72 h of each entry?

// recorded CC50 at 72 h for CCC(CC)COC(=O)[C@H](C)N[P@](=O)(OC[C@H]1O[C@@](C#N)(c2ccc3c(N)ncnn23)[C@H](O)[C@@H]1O)Oc1ccccc1 [Remdesivir] : > 100 µM

// recorded CC50 at 72 h for CCN(CCO)CCCC(C)Nc1ccnc2cc(Cl)ccc12 (stereo not drawn) [Hydroxychloroquine, hydroxychloroquine] : 76.1 µM

// recorded CC50 at 72 h for CCN(CC)CCCC(C)Nc1ccnc2cc(Cl)ccc12 (stereo not drawn) [Chloroquine] : > 100 µM
